assay: Compound cytotoxicity, XTT-based colorimetric assay; assay type: cell-based; conditions: human, uninfected MT2 cells, day 4, XTT
endpoint: CC50 at 4 days

[[record]]
compound = "COc1ccc(N(C)C(=O)[C@H](Cc2ccccc2)NC(=O)NS(=O)(=O)NC(C)c2cccnc2)cc1 (stereo partly shown)"
endpoint_value = "> 100 µM"

[[record]]
compound = "COc1ccc(N(C)C(=O)[C@H](Cc2ccccc2)NC(=O)NS(=O)(=O)N2CC(c3ccccc3)C2)cc1"
endpoint_value = "> 100 µM"

[[record]]
compound = "CN(C(=O)[C@H](Cc1cc(F)cc(F)c1)NC(=O)NS(=O)(=O)N1CCc2cccnc21)c1cnc2scnc2c1"
endpoint_value = "> 100 µM"

[[record]]
compound = "COc1ccc(N(C)C(=O)[C@H](Cc2ccccc2)NC(=O)NS(=O)(=O)Nc2ccccc2)cc1"
endpoint_value = "> 100 µM"

[[record]]
compound = "COc1ccc(N(C)C(=O)[C@H](Cc2ccccc2)NC(=O)NS(=O)(=O)Nc2ccc3c(c2)CCC3)cc1"
endpoint_value = "> 100 µM"

[[record]]
compound = "CN(C(=O)[C@H](Cc1cc(F)cc(F)c1)NC(=O)NS(=O)(=O)N1CCc2cccnc21)c1ccc(CC(F)F)cc1"
endpoint_value = "> 33.3 µM"

[[record]]
compound = "[2H]c1nc2cc(N(C)C(=O)[C@H](Cc3cc(F)cc(F)c3)NC(=O)NS(=O)(=O)N3CCc4cccnc43)ccc2s1"
endpoint_value = "> 10 µM"


====

The following compounds are shown together with reported CC50 at 4 days values.
assay: Compound cytotoxicity, XTT-based colorimetric assay; format: cell-based; details: human, uninfected MT2 cells, day 4, XTT
endpoint: CC50 at 4 days

[[record]]
molecule_smiles = "COc1ccc(N(C)C(=O)[C@H](Cc2ccccc2)NC(=O)NS(=O)(=O)n2c(C)cc3ccc(OC)cc32)cc1"
endpoint = "CC50 at 4 days"
endpoint_value = "62.4 µM"

[[record]]
molecule_smiles = "CN(C(=O)[C@H](Cc1ccccc1)NC(=O)NS(=O)(=O)N(C)c1ccccc1Cl)c1ccc2ncccc2c1"
endpoint = "CC50 at 4 days"
endpoint_value = "> 100 µM"

[[record]]
molecule_smiles = "COc1ccc(N(C)C(=O)[C@H](Cc2ccccc2)NC(=O)NS(=O)(=O)Nc2ccc(C)cc2)cc1"
endpoint = "CC50 at 4 days"
endpoint_value = "> 100 µM"

[[record]]
molecule_smiles = "CN(C(=O)[C@H](Cc1cc(F)cc(F)c1)NC(=O)NS(=O)(=O)N1CCc2cccnc21)c1ccc(C(F)(F)F)nc1"
endpoint = "CC50 at 4 days"
endpoint_value = "35.1 µM"

[[record]]
molecule_smiles = "COc1ccc(N(C)C(=O)[C@H](Cc2ccccc2)NC(=O)NS(=O)(=O)Nc2ccc(C(C)(C)C)cc2)cc1"
endpoint = "CC50 at 4 days"
endpoint_value = "> 100 µM"

[[record]]
molecule_smiles = "COc1ccc(N(C)C(=O)[C@H](Cc2ccccc2)NC(=O)NS(=O)(=O)NCc2nccn2C)cc1"
endpoint = "CC50 at 4 days"
endpoint_value = "> 100 µM"

[[record]]
molecule_smiles = "COc1ccc(N(C)C(=O)[C@H](Cc2ccccc2)NC(=O)NS(=O)(=O)N(c2ccccc2)C(C)C)cc1"
endpoint = "CC50 at 4 days"
endpoint_value = "> 33.3 µM"

[[record]]
molecule_smiles = "CN(C(=O)[C@H](Cc1cc(F)cc(F)c1)NC(=O)NS(=O)(=O)N1CCc2cccnc21)c1ccc2sc(=O)n(C)c2c1"
endpoint = "CC50 at 4 days"
endpoint_value = "> 100 µM"

[[record]]
molecule_smiles = "Cc1ncc(N(C)C(=O)[C@H](Cc2cc(F)cc(F)c2)NC(=O)NS(=O)(=O)N2CCc3cccnc32)cc1Cl"
endpoint = "CC50 at 4 days"
endpoint_value = "5.1 µM"

[[record]]
molecule_smiles = "CN(C(=O)[C@H](Cc1cc(F)cc(F)c1)NC(=O)NS(=O)(=O)N1CCc2cccnc21)c1ccc(=O)n(C)c1"
endpoint = "CC50 at 4 days"
endpoint_value = "> 100 µM"

[[record]]
molecule_smiles = "CCN(c1cccnc1)S(=O)(=O)NC(=O)N[C@@H](Cc1cc(F)cc(F)c1)C(=O)N(C)c1ccc2scnc2c1"
endpoint = "CC50 at 4 days"
endpoint_value = "7.3 µM"

[[record]]
molecule_smiles = "COc1ccc(N(C)C(=O)[C@H](Cc2ccccc2)NC(=O)NS(=O)(=O)Nc2ccc(F)c(F)c2)cc1"
endpoint = "CC50 at 4 days"
endpoint_value = "> 100 µM"

[[record]]
molecule_smiles = "CN(C(=O)[C@H](Cc1cc(F)cc(F)c1)NC(=O)NS(=O)(=O)N1CC[C@H](O)C1)c1ccc2scnc2c1"
endpoint = "CC50 at 4 days"
endpoint_value = "20 µM"

[[record]]
molecule_smiles = "COc1ccc(N(C)C(=O)[C@H](Cc2cc(F)cc(F)c2)NC(=O)NS(=O)(=O)N2CCC[C@H]2C(=O)N(C)C)cc1"
endpoint = "CC50 at 4 days"
endpoint_value = "> 100 µM"

[[record]]
molecule_smiles = "COc1ccc(NS(=O)(=O)NC(=O)N[C@@H](Cc2ccccc2)C(=O)N(C)c2ccc(OC)cc2)cc1"
endpoint = "CC50 at 4 days"
endpoint_value = "> 100 µM"

[[record]]
molecule_smiles = "Cc1ccc(N(C)C(=O)[C@H](Cc2cc(F)cc(F)c2)NC(=O)NS(=O)(=O)N2CCc3cccnc32)nc1"
endpoint = "CC50 at 4 days"
endpoint_value = "> 100 µM"

[[record]]
molecule_smiles = "CN(C(=O)[C@H](Cc1cc(F)cc(F)c1)NC(=O)NS(=O)(=O)NCc1ccccn1)c1ccc2scnc2c1"
endpoint = "CC50 at 4 days"
endpoint_value = "> 100 µM"

[[record]]
molecule_smiles = "COc1ccc(N(C)C(=O)[C@H](Cc2ccccc2)NC(=O)NS(=O)(=O)N(C)c2cccc(OC)c2)cc1"
endpoint = "CC50 at 4 days"
endpoint_value = "> 100 µM"

[[record]]
molecule_smiles = "COc1ccc(N(C)C(=O)[C@H](Cc2ccccc2)NC(=O)NS(=O)(=O)NCc2cccc(F)c2)cc1"
endpoint = "CC50 at 4 days"
endpoint_value = "> 100 µM"

[[record]]
molecule_smiles = "COc1ccc(N(C)C(=O)[C@H](Cc2ccccc2)NC(=O)NS(=O)(=O)Nc2cc(F)ccc2F)cc1"
endpoint = "CC50 at 4 days"
endpoint_value = "> 100 µM"

[[record]]
molecule_smiles = "CCOc1ccc(N(CC)C(=O)[C@H](Cc2ccccc2)NC(=O)NS(=O)(=O)N2CCc3ccccc32)cc1"
endpoint = "CC50 at 4 days"
endpoint_value = "> 33.3 µM"

[[record]]
molecule_smiles = "COc1ccc(N(C)C(=O)[C@H](Cc2ccccc2)NC(=O)NS(=O)(=O)Nc2cccc(Oc3ccccc3)c2)cc1"
endpoint = "CC50 at 4 days"
endpoint_value = "> 33.3 µM"

[[record]]
molecule_smiles = "COc1ccc(N(C)S(=O)(=O)NC(=O)N[C@@H](Cc2cc(F)cc(F)c2)C(=O)N(C)c2ccc3scnc3c2)cn1"
endpoint = "CC50 at 4 days"
endpoint_value = "> 100 µM"

[[record]]
molecule_smiles = "CN(C(=O)[C@H](Cc1cc(F)cc(F)c1)NC(=O)NS(=O)(=O)Nc1cccc(Cl)c1)c1ccc2scnc2c1"
endpoint = "CC50 at 4 days"
endpoint_value = "73.2 µM"

[[record]]
molecule_smiles = "CN(C(=O)[C@H](Cc1cc(F)cc(F)c1)NC(=O)NS(=O)(=O)NCC(C)(C)C)c1ccc2scnc2c1"
endpoint = "CC50 at 4 days"
endpoint_value = "> 100 µM"

[[record]]
molecule_smiles = "CN(C(=O)[C@H](Cc1cc(F)cc(F)c1)NC(=O)NS(=O)(=O)N(C)c1ccccc1F)c1ccc2scnc2c1"
endpoint = "CC50 at 4 days"
endpoint_value = "> 100 µM"

[[record]]
molecule_smiles = "COc1ccc(N(C)C(=O)[C@H](Cc2ccccc2)NC(=O)NS(=O)(=O)NCC(=O)N2CCN(c3ccccc3)CC2)cc1"
endpoint = "CC50 at 4 days"
endpoint_value = "> 100 µM"

[[record]]
molecule_smiles = "COc1ccc(N(C)C(=O)[C@H](Cc2ccccc2)NC(=O)NS(=O)(=O)N2CCc3cccnc32)cc1"
endpoint = "CC50 at 4 days"
endpoint_value = "> 100 µM"

[[record]]
molecule_smiles = "CN(C(=O)[C@H](Cc1cc(F)cc(F)c1)NC(=O)NS(=O)(=O)N1CCOc2cccnc21)c1ccc2scnc2c1"
endpoint = "CC50 at 4 days"
endpoint_value = "> 100 µM"


====

Each entry below carries its reported CC50 at 4 days.
assay: Compound cytotoxicity, XTT-based colorimetric assay; format: cell-based; details: human, uninfected MT2 cells, day 4, XTT
endpoint: CC50 at 4 days

[[record]]
compound = "COc1ccc(N(C)C(=O)[C@H](Cc2ccccc2)NC(=O)NS(=O)(=O)NCc2ccccc2)cc1"
endpoint_value = "> 100 µM"

[[record]]
compound = "CN(C(=O)[C@H](Cc1cc(F)cc(F)c1)NC(=O)NS(=O)(=O)N1CCc2cccnc21)c1ccc2scnc2c1"
endpoint_value = "> 100 µM"

[[record]]
compound = "COc1ccc(N(C)C(=O)[C@H](Cc2ccccc2)NC(=O)NS(=O)(=O)N2CCCCC2c2ccccc2)cc1 (stereo partly shown)"
endpoint_value = "85.5 µM"

[[record]]
compound = "CCN(CC)S(=O)(=O)NC(=O)N[C@@H](Cc1cc(F)cc(F)c1)C(=O)N(C)c1ccc2scnc2c1"
endpoint_value = "> 33.3 µM"

[[record]]
compound = "COc1ccc(N(C)C(=O)[C@H](Cc2ccccc2)NC(=O)NS(=O)(=O)Nc2cccc(S(=O)(=O)N3CCOCC3)c2)cc1"
endpoint_value = "> 100 µM"

[[record]]
compound = "CCCN(C)S(=O)(=O)NC(=O)N[C@@H](Cc1cc(F)cc(F)c1)C(=O)N(C)c1ccc2scnc2c1"
endpoint_value = "> 100 µM"

[[record]]
compound = "COc1ccc(N(C)C(=O)[C@H](Cc2ccccc2)NC(=O)NS(=O)(=O)Nc2ccc(NC(C)=O)cc2)cc1"
endpoint_value = "> 100 µM"

[[record]]
compound = "CC(C)NS(=O)(=O)NC(=O)N[C@@H](Cc1cc(F)cc(F)c1)C(=O)N(C)c1ccc2scnc2c1"
endpoint_value = "> 100 µM"

[[record]]
compound = "CC(C)Oc1ccc(N(C)C(=O)[C@H](Cc2cc(F)cc(F)c2)NC(=O)NS(=O)(=O)N2CCc3cccnc32)cn1"
endpoint_value = "94.9 µM"

[[record]]
compound = "CN(C(=O)[C@H](Cc1cc(F)cc(F)c1)NC(=O)NS(=O)(=O)NC1CC1)c1ccc2scnc2c1"
endpoint_value = "> 100 µM"

[[record]]
compound = "COc1ccc(N(C)C(=O)[C@H](Cc2ccccc2)NC(=O)NS(=O)(=O)N2CCCc3ccccc32)cc1"
endpoint_value = "> 33.3 µM"

[[record]]
compound = "COCCNS(=O)(=O)NC(=O)N[C@@H](Cc1cc(F)cc(F)c1)C(=O)N(C)c1ccc2scnc2c1"
endpoint_value = "9 µM"

[[record]]
compound = "COc1ccc(N(C)C(=O)[C@H](Cc2ccccc2)NC(=O)NS(=O)(=O)Nc2ccc(-n3cccc3)cc2)cc1"
endpoint_value = "> 33.3 µM"

